All figures here come from the supplement of paper PMC13207355.

Tested on: E21 (patient-derived glioblastoma stem cells of mesenchymal subtype)
Assay: surviving fraction (nuclei count normalised to DMSO); higher = more cells surviving (less toxic);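 also: nuclei counted by high-content imaging of Hoechst-stained cells in laminin-coated 384-well plates, relative to 0.1% DMSO vehicle wells, with staurosporine as cell-death control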
Conditions: 111.1111111 nM; exposure time: 72 h
Counter-ions that a name gives are not always drawn.
endpoint: surviving fraction

compound: C/C=C(\C)C(=O)N[C@@H](c1ccccc1)[C@@H](O)C(=O)O[C@H]1C[C@@]2(O)[C@@H](OC(=O)c3ccccc3)[C@@H]3[C@]4(OC(C)=O)CO[C@@H]4C[C@H](O)[C@@]3(C)C(=O)[C@H](OC(C)=O)C(=C1C)C2(C)C
target: E21
endpoint: surviving fraction
experimental_result: 0.246
--
compound: Cc1ccc(NC(=O)c2ccc3c(c2)OCCO3)cc1NC(=O)c1ccc2nc(OCCN3CCCC3)ccc2c1
target: E21
endpoint: surviving fraction
experimental_result: 0.306
--
compound: COc1cc2nc(N3CCN(C(=O)c4ccco4)CC3)nc(N)c2cc1OC [Prazosin hydrochloride]
target: E21
endpoint: surviving fraction
experimental_result: 1.04

----------
// reported surviving fraction for each item listed
Test system: E28 (patient-derived glioblastoma stem cells of classical subtype)
Assay: surviving fraction (nuclei count normalised to DMSO); higher = more cells surviving (less toxic)
Conditions: 1000 nM; exposure time: 72 h
Structures can show the parent of a compound that is named as a salt.
endpoint: surviving fraction

compound: C[C@H]1Oc2cc(cnc2N)-c2c(nn(C)c2C#N)CN(C)C(=O)c2ccc(F)cc21
target: E28
endpoint: surviving fraction
experimental_result: 1.07
--
compound: NCc1ccccc1CC(=O)N[C@@H]1C(=O)N2C(C(=O)O)=C(CSc3nnnn3CC(=O)O)CS[C@H]12 [Ceforanide]
target: E28
endpoint: surviving fraction
experimental_result: 0.963
--
compound: Cn1ncnc1[C@H]1c2n[nH]c(=O)c3cc(F)cc(c23)N[C@@H]1c1ccc(F)cc1
target: E28
endpoint: surviving fraction
experimental_result: 0.395
--
compound: CN(c1nccc(=O)[nH]1)C1CCN(c2nc3ccccc3n2Cc2ccc(F)cc2)CC1
target: E28
endpoint: surviving fraction
experimental_result: 1.13
--
compound: Cn1nnc2c(C(N)=O)ncn2c1=O [Temozolomide]
target: E28
endpoint: surviving fraction
experimental_result: 0.921
--
compound: CCCCCCCCCCCCCCCC[N+](C)(C)CCN(Cc1ccc(OC)cc1)c1ncccn1 [Thonzonium bromide]
target: E28
endpoint: surviving fraction
experimental_result: 0.696
--
compound: C[C@H]1O[C@@H](O[C@H]2[C@@H](O)C[C@H](O[C@H]3[C@@H](O)C[C@H](O[C@H]4CC[C@@]5(C)[C@H](CC[C@@H]6[C@@H]5C[C@@H](O)[C@]5(C)[C@@H](C7=CC(=O)OC7)CC[C@]65O)C4)O[C@@H]3C)O[C@@H]2C)C[C@H](O)[C@@H]1O
target: E28
endpoint: surviving fraction
experimental_result: 0.452
--
compound: Cc1cc(CN2CCN(c3c(Br)cnc4nc(-c5ccc(N6CCN(C)CC6)cc5)[nH]c34)CC2)no1
target: E28
endpoint: surviving fraction
experimental_result: 0.392
--
compound: CC[n+]1c(/C=C/C=C2/N(C)c3ccccc3C2(C)C)sc2ccccc21
target: E28
endpoint: surviving fraction
experimental_result: 0.42
--
compound: CC(=O)O[C@@]12CO[C@@H]1C[C@H](O)[C@@]1(C)C(=O)[C@H](O)C3=C(C)[C@@H](OC(=O)[C@H](O)[C@@H](NC(=O)OC(C)(C)C)c4ccccc4)C[C@@](O)([C@@H](OC(=O)c4ccccc4)[C@H]21)C3(C)C
target: E28
endpoint: surviving fraction
experimental_result: 0.377
--
compound: Cc1nc2ccccn2c(=O)c1CCN1CCC(C(=O)c2ccc(F)cc2)CC1
target: E28
endpoint: surviving fraction
experimental_result: 1.07
--
compound: CC[C@@]1(O)C(=O)OCc2c1cc1n(c2=O)Cc2cc3cc(O)ccc3nc2-1 [Hydroxy Camptothecine]
target: E28
endpoint: surviving fraction
experimental_result: 0.219
--
compound: CN[C@@H](C)C(=O)N[C@H](C(=O)N1CCC[C@H]1C(=O)N[C@H]1c2ccccc2C[C@H]1OCC#CC#CCO[C@@H]1Cc2ccccc2[C@@H]1NC(=O)[C@@H]1CCCN1C(=O)[C@@H](NC(=O)[C@H](C)NC)C1CCCCC1)C1CCCCC1
target: E28
endpoint: surviving fraction
experimental_result: 0.944
--
compound: Clc1ccc(COC(Cn2ccnc2)c2ccc(Cl)cc2Cl)c(Cl)c1 (centres undefined)
target: E28
endpoint: surviving fraction
experimental_result: 0.886
--
compound: CCn1cc(-c2ccnc3[nH]c(-c4cccc(CN(C)C)c4)cc23)c(-c2ccc(NC(=O)N(C)C)cc2)n1
target: E28
endpoint: surviving fraction
experimental_result: 0.53
--
compound: O=C1CCc2cc(OCCCCc3nnnn3C3CCCCC3)ccc2N1
target: E28
endpoint: surviving fraction
experimental_result: 1.12
--
compound: CC(C)C[C@H](NC(=O)CNC(=O)c1cc(Cl)ccc1Cl)B1OC(=O)C(CC(=O)O)(CC(=O)O)O1
target: E28
endpoint: surviving fraction
experimental_result: 0.0719
--
compound: Oc1c(Cl)cc(Cl)c(Cl)c1Cc1c(O)c(Cl)cc(Cl)c1Cl
target: E28
endpoint: surviving fraction
experimental_result: 0.839
--
compound: COc1cccc2c1C(=O)c1c(O)c3c(c(O)c1C2=O)C[C@@](O)(C(=O)CO)C[C@@H]3O[C@H]1C[C@H](N)[C@H](O)[C@H](C)O1 [Doxorubicin hydrochloride]
target: E28
endpoint: surviving fraction
experimental_result: 0.35
--
compound: COC(=O)Nc1nc2cc(C(=O)c3cccs3)ccc2[nH]1
target: E28
endpoint: surviving fraction
experimental_result: 0.267
--
compound: C[C@@]12C(=O)OC(=O)[C@]1(C)[C@H]1CC[C@@H]2O1
target: E28
endpoint: surviving fraction
experimental_result: 0.0107
--
compound: COC(=O)Nc1nc2cc(C(=O)c3ccccc3)ccc2[nH]1
target: E28
endpoint: surviving fraction
experimental_result: 0.288
--
compound: COc1cc2c(NC3CCN(C(C)C)CC3)nc(C3CCCCC3)nc2cc1OCCCN1CCCC1
target: E28
endpoint: surviving fraction
experimental_result: 1.03
--
compound: Cc1ccc2c(c1)C1(CCN(CCc3nc(-c4ccccc4)oc3C)CC1)OC(=O)N2
target: E28
endpoint: surviving fraction
experimental_result: 0.938
--
compound: C=C[C@H]1CN2CC[C@H]1C[C@@H]2[C@@H](O)c1ccnc2ccc(OC)cc12 [Quinidine hydrochloride monohydrate]
target: E28
endpoint: surviving fraction
experimental_result: 1.07
--
compound: COc1cccc2c1C(=O)c1c(O)c3c(c(O)c1C2=O)C[C@@](O)(C(=O)CO)C[C@@H]3O[C@H]1C[C@H](N)[C@H](O[C@@H]2CCCCO2)[C@H](C)O1
target: E28
endpoint: surviving fraction
experimental_result: 0.209
--
compound: N=C(N)c1ccc(-c2ccc(-c3ccc(C(=N)N)cc3)o2)cc1 [Furamidine dihydrochloride]
target: E28
endpoint: surviving fraction
experimental_result: 1.05
--
compound: COc1cc2c(c(OC)c1OC)-c1ccc(OC)c(=O)cc1[C@@H](NC(C)=O)CC2
target: E28
endpoint: surviving fraction
experimental_result: 0.211
--
compound: COc1cc(N)c(Cl)cc1C(=O)NC1CCN(CCCOc2ccc(F)cc2)CC1OC (centres undefined) [Cisapride]
target: E28
endpoint: surviving fraction
experimental_result: 0.963
